Could you please report measured mortality at 200 ppm for the items listed next?
# Test system: Green Peach Aphid (Myzus persicae)
# measurement protocol: Bioassay on Green Peach Aphid (GPA), foliar spray on cabbage seedlings
# Type: in vivo
# condition: 72 h, 200 ppm foliar spray on cabbage seedlings, three days, Abbott corrected % control, read-out: GPA % Control (or Mortality) rating

Note to self: mortality at 200 ppm recorded for O=C(Nn1ccnc1)c1ccc(/C(F)=C/C(c2cc(Cl)c(Cl)c(Cl)c2)C(F)(F)F)cc1C(F)(F)F (stereo not drawn) was 0 to 80%

Note to self: mortality at 200 ppm recorded for O=C(NNc1ncc(Cl)cn1)c1ccc(/C(F)=C/C(c2cc(Cl)c(Cl)c(Cl)c2)C(F)(F)F)cc1C(F)(F)F (stereo not drawn) was 0 to 80%

Note to self: mortality at 200 ppm recorded for O=C(NNc1ncccn1)c1ccc(/C(F)=C/C(c2cc(Cl)c(F)c(Cl)c2)C(F)(F)F)cc1C(F)(F)F (stereo not drawn) was 0 to 80%

Note to self: mortality at 200 ppm recorded for C#CCN(C(=O)c1ccc(/C(F)=C/C(c2cc(Cl)c(Cl)c(Cl)c2)C(F)(F)F)cc1C(F)(F)F)N(C)c1ncccn1 (stereo not drawn) was 0 to 80%

Note to self: mortality at 200 ppm recorded for O=C(NNc1ncccn1)c1ccc(/C(F)=C/C(c2cc(Cl)c(Cl)c(Cl)c2)C(F)(F)F)cc1C(F)(F)F (stereo not drawn) was 80 to 100%

Note to self: mortality at 200 ppm recorded for CN(NC(=O)c1ccc(/C(F)=C/C(c2cc(Cl)c(Cl)c(Cl)c2)C(F)(F)F)cc1C(F)(F)F)c1ncccn1 (stereo not drawn) was 80 to 100%

###

# System: Yellow Fever Mosquito (Aedes aegypti)
# Type: in vivo
# condition: about 1 day-old larvae, 3 days, scored on mortality
measure name: YFM % Control (or Mortality) rating

Here's what some known entries look like.
O=C(NNc1cc(F)ccc1F)c1ccc(/C(F)=C/C(c2cc(Cl)c(Cl)c(Cl)c2)C(F)(F)F)cc1C(F)(F)F (centres unmarked) = A (80-100)
O=C(NNCc1ccccc1)c1ccc(/C(F)=C/C(c2cc(Cl)c(Cl)c(Cl)c2)C(F)(F)F)cc1C(F)(F)F (centres unmarked) = A (80-100)
CCN(NC(=O)c1ccc(/C(F)=C/C(c2cc(Cl)c(Cl)c(Cl)c2)C(F)(F)F)cc1C(F)(F)F)c1ncccn1 (centres unmarked) = A (80-100)
C=CCN(NC(=O)c1ccc(/C(F)=C/C(c2cc(Cl)c(Cl)c(Cl)c2)C(F)(F)F)cc1C(F)(F)F)c1ncccn1 (centres unmarked) = A (80-100)
C#CCN(C(=O)c1ccc(/C(F)=C/C(c2cc(Cl)c(Cl)c(Cl)c2)C(F)(F)F)cc1C(F)(F)F)N(C)c1ncccn1 (centres unmarked) = A (80-100)
O=C(NNc1ccccc1)c1ccc(/C(F)=C/C(c2cc(Cl)c(Cl)c(Cl)c2)C(F)(F)F)cc1C(F)(F)F (centres unmarked) = A (80-100)
Cc1cc(F)ccc1NNC(=O)c1ccc(/C(F)=C/C(c2cc(Cl)c(Cl)c(Cl)c2)C(F)(F)F)cc1C(F)(F)F (centres unmarked) = A (80-100)

Now for a further compound.
Note to self: YFM % Control (or Mortality) rating recorded for CN(NC(=O)c1ccc(/C(F)=C/C(c2cc(Cl)c(Cl)c(Cl)c2)C(F)(F)F)cc1C(F)(F)F)c1ccc(C#N)cn1 (centres unmarked) was A (80-100)
